target: PI3K beta (Homo sapiens, UniProt P42338); construct: for the full-length p110-b subunit are generated and fused by overlapping PCR; His tag (C); made in house; host or cells: baculovirus BV949; Tn5 (Trichoplusia ni) or TiniPro insect cells; assay: PI3K beta kinase assay (Kinase-Glo luminescence); assay type: biochemical; conditions: read-out: PI3Kbeta/IC50
Sequence (P42338 with tags, fused parts or gaps limits assumed): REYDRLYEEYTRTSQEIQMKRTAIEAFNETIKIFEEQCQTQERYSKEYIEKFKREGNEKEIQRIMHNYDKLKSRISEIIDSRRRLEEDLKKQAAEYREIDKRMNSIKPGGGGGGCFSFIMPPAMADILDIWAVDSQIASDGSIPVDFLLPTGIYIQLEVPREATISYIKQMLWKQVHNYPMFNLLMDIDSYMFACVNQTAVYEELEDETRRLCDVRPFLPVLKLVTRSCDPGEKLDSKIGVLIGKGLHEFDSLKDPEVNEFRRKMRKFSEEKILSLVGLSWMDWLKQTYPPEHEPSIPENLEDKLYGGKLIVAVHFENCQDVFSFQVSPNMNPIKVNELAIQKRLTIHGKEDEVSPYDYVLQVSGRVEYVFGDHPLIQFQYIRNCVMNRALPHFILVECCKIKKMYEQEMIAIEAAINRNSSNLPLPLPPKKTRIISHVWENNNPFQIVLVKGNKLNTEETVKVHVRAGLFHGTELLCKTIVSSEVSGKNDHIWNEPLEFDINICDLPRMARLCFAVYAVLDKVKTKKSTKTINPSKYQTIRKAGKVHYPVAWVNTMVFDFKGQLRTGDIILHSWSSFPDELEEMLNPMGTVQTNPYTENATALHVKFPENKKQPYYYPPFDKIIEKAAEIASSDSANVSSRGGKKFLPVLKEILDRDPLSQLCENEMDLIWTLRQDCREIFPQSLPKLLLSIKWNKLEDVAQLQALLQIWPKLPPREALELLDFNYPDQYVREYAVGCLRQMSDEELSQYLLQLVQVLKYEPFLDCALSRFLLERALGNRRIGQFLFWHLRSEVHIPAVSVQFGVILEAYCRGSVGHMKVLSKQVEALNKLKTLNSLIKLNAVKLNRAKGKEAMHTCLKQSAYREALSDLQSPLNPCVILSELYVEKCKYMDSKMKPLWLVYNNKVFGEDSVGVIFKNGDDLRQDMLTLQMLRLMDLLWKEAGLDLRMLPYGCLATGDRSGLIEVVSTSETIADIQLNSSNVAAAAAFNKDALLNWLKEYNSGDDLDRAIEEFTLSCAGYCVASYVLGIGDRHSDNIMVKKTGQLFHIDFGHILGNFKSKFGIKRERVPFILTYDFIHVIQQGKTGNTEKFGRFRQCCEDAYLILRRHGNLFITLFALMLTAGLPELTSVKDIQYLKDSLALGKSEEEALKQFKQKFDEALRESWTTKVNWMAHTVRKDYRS
MEASUREMENT LABEL: IC50 (nM)
Report the value in nM with no unit label.

> print(dat)
                                   compound                     target.or.test.system  units.of.measure  experimental.value
1  COc1ccc(-c2ccc3ncc4c(c3c2)n(-c2cccnc2OC)c(=O)n4C)cn1 [Example 1.1]  PI3K beta (Homo sapiens, UniProt P42338)                nM                 202
2  Cc1nc(F)ccc1-n1c(=O)n(C)c2cnc3ccc(-c4cnc(N)c(C(F)(F)F)c4)cc3c21 [Example 7.1]  PI3K beta (Homo sapiens, UniProt P42338)                nM                   7
3  CNc1ccc(-c2ccc3ncc4c(c3c2)n(-c2ccc(F)nc2C)c(=O)n4C)cn1 [Example 7.4]  PI3K beta (Homo sapiens, UniProt P42338)                nM                 263

Let's switch to this compound now.
Input line: I am curious: what IC50 value has been reported for COc1ccc(-c2ccc3ncc4c(c3c2)n(-c2cccnc2)c(=O)n4C)cn1 [Example 5.4] ?
Output line: 263
